- PROTOCOL NOTES: Cytotoxicity against african green monkey Vero 76 cells assessed as cell viability after 48 to 96 hrs by crystal violet staining method
- Type: cell-based
- EXPERIMENTAL CONDITIONS: chlorocebus sabaeus
RESULT TYPE: CC50

# CC50 of CN1CCN(CCn2nnc3ccccc32)CC1 = > 100 µM

Lab note: O=C(O)COc1ccc(-n2nc3ccccc3[n+]2[O-])cc1 gave CC50 of > 100 µM

The recorded CC50 for C[C@@]1(O)[C@H](O)[C@@H](CO)O[C@H]1n1cnc2c(=O)[nH]c(N)nc21 is > 100 µM

For record [O-][n+]1c2cc(C(F)(F)F)ccc2nn1-c1ccc(O)cc1 the listed CC50 is > 100 µM

Record FC(F)(F)c1ccc2nn(Cc3ccc(Cl)cc3)nc2c1 , field CC50: > 100 µM

# CC50 of Oc1ccc(-n2nc3ccccc3n2)cc1 = 90 µM

CC50 for C[C@@H](Oc1ccc(-n2nc3ccccc3n2)cc1)C(=O)O is > 100 µM

Lab note: COc1ccc(-n2nc3ccc(C(F)(F)F)cc3n2)cc1 gave CC50 of > 100 µM

Form: compound = Nc1ccc(-n2nc3ccccc3n2)cc1 ; CC50 = > 100 µM

Per the records, this compound ( CC(=O)Nc1ccc(-n2nc3ccccc3n2)cc1 ) has CC50 equal to > 100 µM

Memo: Oc1ccc(-n2nc3cc(Cl)c(Cl)cc3n2)cc1 , reported CC50: 50 µM

So for COc1cc(C(=O)OCCCn2nnc3ccccc32)cc(OC)c1OC , the logged CC50 turned out to be 100 µM

// CC50 lookup, compound = CC(C)(COc1ccc(-n2nc3ccc(Cl)cc3n2)cc1)C(=O)O , result: 40 µM

Value of measured CC50 for the entry COc1cc(/C=C/C(=O)OCCn2nnc3ccccc32)cc(OC)c1OC : > 100 µM

Notebook: Clc1c(Cl)c(Cl)c2nn(C3CCCO3)nc2c1Cl (configuration not stated) , CC50 read as 12 µM

Memo: COc1cc(/C=C/C(=O)OCCn2nc3ccccc3n2)cc(OC)c1OC , reported CC50: > 100 µM

Entry Cc1cc2nn(C3CCCO3)nc2cc1C (configuration not stated) — recorded CC50 = > 100 µM

Memo: COc1cc(C(=O)OCCn2nnc3ccccc32)cc(OC)c1OC , reported CC50: 80 µM

CC50 recorded for this compound, COc1cc(C(=O)OCCCn2nc3ccccc3n2)cc(OC)c1OC , is > 100 µM

Value of measured CC50 for the entry COc1cc(C(=O)OCCn2nc3ccccc3n2)cc(OC)c1OC : 1.6 µM

Lookup result for COc1ccc2nn(-c3ccc(OCCCC(C)(C)C(=O)O)cc3)nc2c1 ; measured CC50: 20 µM

Looking up [O-][n+]1c2ccccc2nn1-c1ccc(O)cc1 , I see its CC50 listed as > 100 µM

For record Cc1ccc2nn(-c3ccc(OC(C)(C)C(=O)O)cc3)nc2c1 the listed CC50 is 95 µM

CC50 in this record for CC(CC(=O)O)n1nc2ccc3ccccc3c2n1 (configuration not stated) : > 100 µM

// CC50 lookup, compound = C[C@H](Oc1ccc(-n2nc3ccccc3n2)cc1)C(=O)O , result: > 100 µM

Form field CC50, entry Oc1ccc(-n2nc3ccc(C(F)(F)F)cc3n2)cc1 : > 100 µM

Lab note: Clc1ccc(Cn2nc3cc(Cl)c(Cl)cc3n2)cc1 gave CC50 of > 100 µM

The compound listed as O=C(Cn1nc2ccccc2n1)N1CCOCC1 has a reported CC50 of > 100 µM

GET /value?item= NNC(=O)Cn1nnc2ccccc21 &field=CC50 returns > 100 µM

Reported CC50 of NC(=O)c1ncn([C@@H]2O[C@H](CO)[C@@H](O)[C@H]2O)n1 : > 100 µM

// recorded CC50 for COc1ccc(Cn2nnc3cc(Cl)c(Cl)cc32)cc1 : > 100 µM

Form: compound = CN(C)C(=O)Cn1nnc2ccccc21 ; CC50 = > 100 µM

The compound listed as CN(C)c1cccc(C(=O)OCCn2nc3ccccc3n2)c1 shows CC50 equal to > 100 µM

Measured CC50 of CC(CC(=O)O)n1nnc2ccc([N+](=O)[O-])cc21 (configuration not stated) : > 100 µM

Looking up Cc1cc(-n2nc3ccccc3n2)cc(C)c1OC(C)(C)C(=O)O , I found its CC50 recorded as ≥ 100 µM

// sample CC(C)(Oc1ccc(-n2nc3ccccc3n2)cc1)C(=O)O , its CC50 was ≥ 100 µM

Measured CC50, COc1ccc2nn(-c3ccc(OCC(C)(C)C(=O)O)cc3)nc2c1 : 65 µM

CC50 in this record for Cc1ccc2nn(-c3ccc(OCC(C)(C)C(=O)O)cc3)nc2c1 : 60 µM

# CC50 (compound: CN(C)c1cccc(C(=O)OCCCn2nc3ccccc3n2)c1 ) is > 100 µM

// CC50 lookup, compound = Cc1cc(CCCOc2c(C)cc(-c3noc(C(F)(F)F)n3)cc2C)on1 , result: 70 µM

Data point: CC(C)(CCCOc1ccc(-n2nc3ccc(Cl)cc3n2)cc1)C(=O)O ; CC50 = 15 µM

CC50 for O=C(Cn1nnc2ccccc21)N1CCOCC1 is > 100 µM

Entry Cc1ccc(C)c(OCCCC(C)(C)C(=O)O)c1 ; CC50 = > 100 µM

Lab note: measured CC50 of CC(CC(=O)O)n1nc2ccc([N+](=O)[O-])cc2n1 (configuration not stated) was > 100 µM

Entry under test: FC(F)(F)c1ccc2c(c1)nnn2C[C@@H]1CCCN2CCCC[C@H]12 . Its CC50 was > 100 µM

Input COc1ccc2nn(-c3ccc(OC(C)(C)C(=O)O)cc3)nc2c1 . Output CC50: 90 µM

GET /value?item= C#C[C@@]1(O)[C@H](O)[C@@H](CO)O[C@H]1n1ccc(N)nc1=O &field=CC50 returns > 100 µM
